experiment: viability loss in pontine glioma line – cell-based, SU-DIPG-XXV, MIPE5.0, CellTiter-Glo, qHTS, dose response (AID 1347065); details: CellTiter-Glo ATP luminescence;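 note: cells exposed to compound for 48 hours before ATP readout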
Inconclusive results are not listed. Calls of active or inactive are those of the source. No cut-off is given here; in the data, nearly all actives have AC50 up to about 26 µM.
Outcome field: choose from 1 = active, -1 = inactive

See these solved cases before continuing.
# molecule, answer-label
measured = [
    ("CN(C)c1ccc(C(=O)NCCCCCCC(=O)NO)cc1", 1),
    ("CS(=O)(=O)c1ccc(Oc2cc(F)cc(C#N)c2)c2c1[C@H](O)C(F)(F)C2", -1),
    ("C#CCN(C)CC1=Cc2ccccc2Oc2ccccc21", -1),
    ("O=C(NCCCNc1nc(Nc2cccc(CN3CCOCC3)c2)ncc1C1CC1)C1CCC1", 1),
    ("Cc1ncc(Cl)cc1NCc1ccc(C(=O)NC(CC2CCCC2)C(=O)NC2CC2)s1 (centres undefined)", -1),
]

Record lookup: outcome of this test for Cc1cc(C(=O)Nc2cc(Nc3ccc4c(/C=C/c5ccccn5)n[nH]c4c3)ccc2F)n(C)n1 ? 1

Record lookup: outcome of this test for CS(=O)(=O)c1ccc(C(=O)Nc2ccc(Cl)c(-c3ccccn3)c2)c(Cl)c1 ? -1

Record lookup: outcome of this test for CCCn1c(=O)c2[nH]c(-c3cnn(Cc4cccc(C(F)(F)F)c4)c3)nc2n(CC)c1=O ? 1

Record lookup: outcome of this test for CO[C@@H](C(=O)N1Cc2[nH]nc(NC(=O)c3ccc(N4CCN(C)CC4)cc3)c2C1)c1ccccc1 ? 1

Record lookup: outcome of this test for S=C(NCc1ccc2c(c1)OCO2)N1CCN(c2ncnc3c2oc2ccccc23)CC1 ? 1

Record lookup: outcome of this test for C1Cc2[nH]nc(-c3nn[nH]n3)c2C1 ? -1

Record lookup: outcome of this test for O=C(C[C@@H]1C/C=C\CCC(=O)O[C@H](c2ccccc2)CNC1=O)NCc1ccc(Cl)cc1 ? -1

Record lookup: outcome of this test for CN[C@@H](C)C(=O)N[C@H](C(=O)N1CCC[C@H]1C(=O)Nc1sc(-c2ncco2)nc1-c1ccccc1)C1CCCCC1 ? -1

Record lookup: outcome of this test for O=C(NCCS(=O)(=O)c1ccc(C(F)(F)F)cn1)c1ccc(Cl)cc1 ? -1

Record lookup: outcome of this test for CN1CCN(CCOc2cc(OC3CCOCC3)c3c(Nc4c(Cl)ccc5c4OCO5)ncnc3c2)CC1 ? -1

Record lookup: outcome of this test for CCS(=O)(=O)N1CCN(c2ccc(Nc3ncc(C(N)=O)c(NC4CC4)n3)cc2)CC1 ? 1

Record lookup: outcome of this test for Cc1c(CN2CCN(C(=O)[C@H](C)O)CC2)sc2c(N3CCOCC3)nc(-c3cnc(N)nc3)nc12 ? 1

Record lookup: outcome of this test for CCN1CCC(n2cc(CNc3cc(Cl)c4ncc(C#N)c(Nc5ccc(F)c(Cl)c5)c4c3)nn2)CC1 ? 1

Record lookup: outcome of this test for c1nc2nc(Nc3ccc(N4CCOCC4)cc3)nc(NC3CCCCC3)c2[nH]1 ? 1
